Target: OsSMF1 (Oryza sativa, UniProt Q6ZLB0 1-436)
Sequence: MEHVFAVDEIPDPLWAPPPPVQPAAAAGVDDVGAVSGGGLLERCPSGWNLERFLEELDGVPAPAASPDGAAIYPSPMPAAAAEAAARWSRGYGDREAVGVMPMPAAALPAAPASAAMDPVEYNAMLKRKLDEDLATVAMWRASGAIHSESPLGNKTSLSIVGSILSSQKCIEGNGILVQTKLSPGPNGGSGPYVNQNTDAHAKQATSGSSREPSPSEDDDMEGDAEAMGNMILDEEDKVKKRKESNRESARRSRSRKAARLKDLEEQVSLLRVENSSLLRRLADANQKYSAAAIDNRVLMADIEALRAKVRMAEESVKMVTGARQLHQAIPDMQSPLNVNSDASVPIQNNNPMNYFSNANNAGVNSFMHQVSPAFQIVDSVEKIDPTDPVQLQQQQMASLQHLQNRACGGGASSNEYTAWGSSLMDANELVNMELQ
Assay: protein-binding microarray (RPBM); PBS, 2% BSA, 51.3 ng/ul salmon testes DNA, 50 uM zinc acetate, 200 nM TF, 25 C, 1 h; high values mean tight binding
Conditions: protein: recombinant; tags: N-terminal polyhistidine and DsRed monomer fusion (pET32a); chain copies: 2; label: CyDye5-dUTP incorporated in the synthesized complementary strand; 3' TTTTT single-stranded linker to array surface; dsDNA, one strand shown
Whole data set: some 39,000 sequences, median “fluorescence intensity (a.u.)” near 4,300, cut for the highest 2% near 39,000. For the sample, the highest values were picked, then their nearest neighbours and some sequences at random.
readout-name: binding signal

Answered examples (5):
> print(dat)
                              sequence.data    readout.name                                  val
1  TCGGGTGAGCGAGTGAGTGGGCGAGGAGGCGCGGCGGCGGCGGAGTCACCTAGTGCAG  binding signal   3800 fluorescence intensity (a.u.)
2  GAGGAAGAACCTTACGCTCAAACGAAACGGAACCAGTAGGCGGAGTCACCTAGTGCAG  binding signal  55100 fluorescence intensity (a.u.)
3  CGGCCGTGTTAAGCCTCTTCCAAAGTCAGCTGAGTTGTGCCGGAGTCACCTAGTGCAG  binding signal   5460 fluorescence intensity (a.u.)
4  GTCCATCGGATCGGGAGCGCGCGGCGAGGCAGGCGGGGTCCGGAGTCACCTAGTGCAG  binding signal  44300 fluorescence intensity (a.u.)
5  CAGACCAGGGTTACTCTCCTCAACATTCTTAGCTCATAGACGGAGTCACCTAGTGCAG  binding signal  47700 fluorescence intensity (a.u.)

Please report binding signal with OsSMF1 (Oryza sativa, UniProt Q6ZLB0 1-436) for item GAGCCGAGACTGAGAGAGAGATCGGCGCCGGCTGTGAACGCGGAGTCACCTAGTGCAG .
48100 fluorescence intensity (a.u.)

Report measured binding signal on OsSMF1 (Oryza sativa, UniProt Q6ZLB0 1-436); entry: TATTTTATATTAGTGTTCAAACGTTCGATGTGACATGTGTCGGAGTCACCTAGTGCAG
3930 fluorescence intensity (a.u.)

Supply binding signal measured with OsSMF1 (Oryza sativa, UniProt Q6ZLB0 1-436) for AATACTTTATGCAGGTGTTCAAATGTTCGATGTGACAGGGCGGAGTCACCTAGTGCAG .
3150 fluorescence intensity (a.u.)

Write binding signal of TCGGCCGTCGGATCGCGCGCGAAACGCTGTGATGTGCTGGCGGAGTCACCTAGTGCAG ; system used: OsSMF1 (Oryza sativa, UniProt Q6ZLB0 1-436)
4480 fluorescence intensity (a.u.)

Supply binding signal measured with OsSMF1 (Oryza sativa, UniProt Q6ZLB0 1-436) for ACAGGGTTGCCAAGCTCTTACTCAACCTAAACCACCAGAACGGAGTCACCTAGTGCAG .
3200 fluorescence intensity (a.u.)

Give binding signal; test system OsSMF1 (Oryza sativa, UniProt Q6ZLB0 1-436); sequence GCGGAGGCCGCCGGCTGACGTGGCTCCCAACGGCCGGGAGCGGAGTCACCTAGTGCAG
21200 fluorescence intensity (a.u.)

Provide the reported binding signal (system: OsSMF1 (Oryza sativa, UniProt Q6ZLB0 1-436)) for CGTACAACGGGTGTGTGTTTGGAGCCTGTAGCATGTGGTGCGGAGTCACCTAGTGCAG
4250 fluorescence intensity (a.u.)

Give OsSMF1 (Oryza sativa, UniProt Q6ZLB0 1-436) binding signal for the following sequence: CCTACACTGAAGTTAAGCAGATCTTCCAGGCCTCGTGTTTCGGAGTCACCTAGTGCAG
43800 fluorescence intensity (a.u.)

Provide the reported binding signal (system: OsSMF1 (Oryza sativa, UniProt Q6ZLB0 1-436)) for GGCCTGTCGTACAAGCCGCTTTGCTTGGGCATACAAGCAACGGAGTCACCTAGTGCAG
65100 fluorescence intensity (a.u.)

Determine reported binding signal for TACTTTATATAGATGTTCAAACATTCGATATGACATGCTGCGGAGTCACCTAGTGCAG ; test system: OsSMF1 (Oryza sativa, UniProt Q6ZLB0 1-436).
45300 fluorescence intensity (a.u.)

Report value only: binding signal, OsSMF1 (Oryza sativa, UniProt Q6ZLB0 1-436), ACTCGTGGAGCCGGTGATGACGTGCCCAAGCTAGAGACAGCGGAGTCACCTAGTGCAG
7230 fluorescence intensity (a.u.)

Report value only: binding signal, OsSMF1 (Oryza sativa, UniProt Q6ZLB0 1-436), CAGCAGCAACGAAATCAGAACGAGGCGCAGGAAGAAGAAACGGAGTCACCTAGTGCAG
28000 fluorescence intensity (a.u.)

Please report binding signal with OsSMF1 (Oryza sativa, UniProt Q6ZLB0 1-436) for item TCGTGCTACAGATCTATAGCACACTACTCTTCTCTCTCTTCGGAGTCACCTAGTGCAG .
3370 fluorescence intensity (a.u.)

State measured binding signal of the sequence GAGATGTCTGAACAAACAGATGGACGTGTAATGTTGTGGACGGAGTCACCTAGTGCAG with OsSMF1 (Oryza sativa, UniProt Q6ZLB0 1-436).
3400 fluorescence intensity (a.u.)

====

Molecular target: OsSMF1 (Oryza sativa, UniProt Q6ZLB0 1-436)
Sequence: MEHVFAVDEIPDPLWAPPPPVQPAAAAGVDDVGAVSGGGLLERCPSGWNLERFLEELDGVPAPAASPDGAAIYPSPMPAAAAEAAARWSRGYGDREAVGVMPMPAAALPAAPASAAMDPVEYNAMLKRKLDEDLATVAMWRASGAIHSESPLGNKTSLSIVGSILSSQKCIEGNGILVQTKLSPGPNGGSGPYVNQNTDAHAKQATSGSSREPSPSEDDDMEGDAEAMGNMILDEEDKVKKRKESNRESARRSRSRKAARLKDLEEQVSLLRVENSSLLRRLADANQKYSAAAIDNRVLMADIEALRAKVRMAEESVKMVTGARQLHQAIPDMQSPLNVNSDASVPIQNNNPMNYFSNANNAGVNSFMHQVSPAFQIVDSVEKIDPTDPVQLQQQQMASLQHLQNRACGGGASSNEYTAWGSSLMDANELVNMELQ
Test: protein-binding microarray (RPBM); PBS, 2% BSA, 51.3 ng/ul salmon testes DNA, 50 uM zinc acetate, 200 nM TF, 25 C, 1 h; high values mean tight binding
Conditions: protein: recombinant; tags: N-terminal polyhistidine and DsRed monomer fusion (pET32a); chain copies: 2; label: CyDye5-dUTP incorporated in the synthesized complementary strand; 3' TTTTT single-stranded linker to array surface; dsDNA, one strand shown
Over roughly 39,000 sequences, “fluorescence intensity (a.u.)” has its median near 4,300; the highest 2% begin near 39,000. Shown is part of a subset that was picked to be rich in the highest values.
readout-name: binding signal

Completed entries (count: 10):
> print(dat)
                               sequence.data                     target.or.test.system                                  val
 1  CTCATGATGGCTTTATCAATATCAAGATTTGATGACTCAGCGGAGTCACCTAGTGCAG  OsSMF1 (Oryza sativa, UniProt Q6ZLB0 1-436)  15400 fluorescence intensity (a.u.)
 2  CCAACTTTTCCATCACATCGTTCCAATTTCAACCAAACTTCGGAGTCACCTAGTGCAG  OsSMF1 (Oryza sativa, UniProt Q6ZLB0 1-436)  21900 fluorescence intensity (a.u.)
 3  CAACATTAGCAATTAAAATTGCGGGTTATTTGTAAAAGTCCGGAGTCACCTAGTGCAG  OsSMF1 (Oryza sativa, UniProt Q6ZLB0 1-436)  32000 fluorescence intensity (a.u.)
 4  GTGTGAAACTCATACAAATATAAAATTACTGAACTACCGTCGGAGTCACCTAGTGCAG  OsSMF1 (Oryza sativa, UniProt Q6ZLB0 1-436)  49600 fluorescence intensity (a.u.)
 5  CGCCAGCCACCTCCGGCGCCGTTCGCCAGCCACCACGCGCCGGAGTCACCTAGTGCAG  OsSMF1 (Oryza sativa, UniProt Q6ZLB0 1-436)  37900 fluorescence intensity (a.u.)
 6  GCCACACCTCCCATTCCTTAGCCAAACACTCGCACTACTCCGGAGTCACCTAGTGCAG  OsSMF1 (Oryza sativa, UniProt Q6ZLB0 1-436)   3200 fluorescence intensity (a.u.)
 7  TCCAAGAAAGAAAGGAGAATTATCCGGCAGTTTCAGAGGTCGGAGTCACCTAGTGCAG  OsSMF1 (Oryza sativa, UniProt Q6ZLB0 1-436)  22200 fluorescence intensity (a.u.)
 8  AATTATAAAATCCAGAAAATAAACTAAGAACTGAAAACTACGGAGTCACCTAGTGCAG  OsSMF1 (Oryza sativa, UniProt Q6ZLB0 1-436)   5060 fluorescence intensity (a.u.)
 9  ATACATAGCCATATATAAAATTAATGTGATAACATATTCTCGGAGTCACCTAGTGCAG  OsSMF1 (Oryza sativa, UniProt Q6ZLB0 1-436)   3660 fluorescence intensity (a.u.)
10  CCTTCTTAACAGTCTGTGAAGCTCTGCCATCTCACCGTCTCGGAGTCACCTAGTGCAG  OsSMF1 (Oryza sativa, UniProt Q6ZLB0 1-436)   3820 fluorescence intensity (a.u.)

Specify binding signal for GGCTTCGGCCAGCTAGCCGCCACGTCTCCGCCGGTTTTAACGGAGTCACCTAGTGCAG , system OsSMF1 (Oryza sativa, UniProt Q6ZLB0 1-436).
8270 fluorescence intensity (a.u.)

Tell me binding signal of GATAATTAAGCTGATAGCGAGACATAACAAGCTCTGTTCTCGGAGTCACCTAGTGCAG when tested on OsSMF1 (Oryza sativa, UniProt Q6ZLB0 1-436).
49600 fluorescence intensity (a.u.)

Give binding signal for this entry on OsSMF1 (Oryza sativa, UniProt Q6ZLB0 1-436): GGGCGCACCTACAGCACCAAGTGTAACCAGAGCTTACACACGGAGTCACCTAGTGCAG
3420 fluorescence intensity (a.u.)

Under OsSMF1 (Oryza sativa, UniProt Q6ZLB0 1-436), report binding signal for AAAATGTGAATCTTTTGTATAGCCAGCTTCTTCTAAAACACGGAGTCACCTAGTGCAG
24900 fluorescence intensity (a.u.)

Quote binding signal with test system OsSMF1 (Oryza sativa, UniProt Q6ZLB0 1-436) for ATACAAGACAAATCGATTAACATAAGATCGATATATCGCTCGGAGTCACCTAGTGCAG
24700 fluorescence intensity (a.u.)

Fetch value of binding signal on OsSMF1 (Oryza sativa, UniProt Q6ZLB0 1-436) for ACAAATACTGATACATATACCTATACGTATGCGTCACCGTCGGAGTCACCTAGTGCAG .
8380 fluorescence intensity (a.u.)

Fetch value of binding signal on OsSMF1 (Oryza sativa, UniProt Q6ZLB0 1-436) for TACTTCTTCTAAATGCTATAGCCAGGGAATGCAAACGAGACGGAGTCACCTAGTGCAG .
42000 fluorescence intensity (a.u.)

Report value only: binding signal, OsSMF1 (Oryza sativa, UniProt Q6ZLB0 1-436), CACGGGGTGGTCGCGGGTCACAGTGACGGACGGTGCACGGCGGAGTCACCTAGTGCAG
20200 fluorescence intensity (a.u.)

Look up OsSMF1 (Oryza sativa, UniProt Q6ZLB0 1-436) data: binding signal of TCTTTCTGCACTTTCTCTGAACGTGGATAAGACATAACCGCGGAGTCACCTAGTGCAG , then report it.
8130 fluorescence intensity (a.u.)

The reported measurements were obtained from paper PMC7819943.
